system: U2OS; experiment: Multiplex assay against U2OS; assay type: toxicity, cell-based; conditions: human, 24 h, 1 µM, compound concentration 1 uM, replicate 2
Measured Population Pyknosed Nuclei (%) by item
Note to self: number, then unit, no commentary.

Sample O=C(NCCN1CCC(n2c(=O)[nH]c3cc(Cl)ccc32)CC1)c1ccc(F)cc1 [HALOPEMIDE] ; Population Pyknosed Nuclei (%) observed: 12%

Record summary for CCc1cc2cc(NS(=O)(=O)c3ccc(C#N)cc3)ccc2n(CC)c1=O : reported Population Pyknosed Nuclei (%) = 7%

----------
tested on: Fibroblast; test: Multiplex assay against human fibroblast; format: toxicity, cell-based; details: 48 h, 10 µM, compound concentration 10 uM, replicate 1
reported-metric: Population Pyknosed Nuclei (%)
Expressed in %, but write only the number.

COC[C@@H](c1ccc(C(F)(F)F)cc1)N1CCN(C2(C)CCN(C(=O)c3c(C)ncnc3C)CC2)C[C@@H]1C.O=C(O)/C=C\C(=O)O [VICRIVIROC MALEATE] ... 10

Measured Population Pyknosed Nuclei (%), CC(=O)Nc1cccc2c1c(Sc1ccc(Cl)cc1)c(C)n2CC(=O)O [AZD1981] : 13

Measured Population Pyknosed Nuclei (%) of Cc1cccc(NC(=O)CN2CCC(c3ccccn3)CC2)c1.Cl.Cl : 7

In plain terms, O=C(CCCc1ccccc1)Nc1nc2ccccc2c(=O)s1 has a documented Population Pyknosed Nuclei (%) of 22

Form: compound = Cc1noc(-c2ccc(-c3ccc(CC(=O)O)cc3)cc2)c1NC(=O)O[C@H](C)c1ccccc1Cl ; Population Pyknosed Nuclei (%) = 13

NCCc1cn(S(=O)(=O)c2c(Cl)nc3sccn23)c2ccccc12.O=C(O)C(=O)O has a reported Population Pyknosed Nuclei (%) of 12

----------
test system: U2OS; assay: Multiplex assay against U2OS; format: toxicity, cell-based; details: human, 48 h, 10 µM, compound concentration 10 uM, replicate 1
Returns criterion met if the recorded Population Pyknosed Nuclei (%) is greater than or equal to 8%, and criterion not met otherwise.

Study these solved cases before continuing.
COc1ccccc1N1CCN(C[C@@H](C(=O)NC(C)(C)C)c2ccccc2)CC1.Cl.Cl ... criterion met
CCCCCC(O)/C=C/[C@H]1C(=O)CC(O)C1C/C=C\CCCC(=O)O (stereo partly drawn) ... criterion met
CCCCC1=NC2(CCCC2)C(=O)N1Cc1ccc(-c2ccccc2-c2nnn[nH]2)cc1 [IRBESARTAN] ... criterion met

Hi team, for Cc1cnc(-c2cc(N3CCN(C(=O)CCS(C)(=O)=O)CC3)ncc2Cl)c(C)c1 , is the recorded Population Pyknosed Nuclei (%) at or above 8%?
criterion not met

Is reported Population Pyknosed Nuclei (%) greater than or equal to 8% here: Cc1sc2c(c1C)C(c1ccc(Cl)cc1)=N[C@@H](CC(=O)NCCCCCCCCNC(=O)COc1cccc3c1C(=O)N(C1CCC(=O)NC1=O)C3=O)c1nnc(C)n1-2 (stereo partly drawn)
criterion met

----------
Population Hoechst High Intensity Objects (%) values, listed per item
system: Fibroblast; experiment: Multiplex assay against human fibroblast; type: toxicity, cell-based; details: 24 h, 10 µM, compound concentration 10 uM, replicate 2
Could you give me the number in %? Just the number is fine.

Answered examples (2):
O=C(NCCN1CCC(n2c(=O)[nH]c3cc(Cl)ccc32)CC1)c1ccc(F)cc1 [HALOPEMIDE] ... 6
COc1ccccc1N1CCN(C[C@@H](C(=O)NC(C)(C)C)c2ccccc2)CC1.Cl.Cl ... 3

Short answer for O=C1[C@H](Cc2ccc(O)cc2)N2C(=O)CCN(C(=O)NCc3ccccc3)[C@H]2CN1Cc1cccc2ccccc12 : Population Hoechst High Intensity Objects (%) was 7

Per the record, CN(C)C(=O)Cn1cc(-c2ccc(-c3cncc4ccccc34)cc2)cn1 has Population Hoechst High Intensity Objects (%) of 5
